- Test system: metallo β-lactamase producing bacteria
- assay text: MIC in combination with various antibiotics against metallo β-lactamase producing bacteria (Tables 10-12)
- Assay type: cell-based
- experimental context: Enterobacter cloacae, Enterobacter cloacae isolate 3686, IMP-1; substance alone
measurement name: MIC (µg/mL)

Solved cases below.
query: Please report the measured MIC for O=C(NO[C@H]1CCNC1)[C@@H]1CC[C@@H]2CN1C(=O)N2OS(=O)(=O)O [Ex. 2]
result: 4

query: Please report the measured MIC for C[C@H]1[C@H](NC(=O)/C(=N\OC(C)(C)C(=O)O)c2csc(N)n2)C(=O)N1S(=O)(=O)O [Aztreonam, aztreonam]
result: 32

A = CC(=O)NNC(=O)[C@@H]1CC[C@@H]2CN1C(=O)N2OS(=O)(=O)O [Ex. 40]
B = O=C(NO[C@H]1CCCNC1)[C@@H]1CC[C@@H]2CN1C(=O)N2OS(=O)(=O)O [Ex. 4]
query: Which of the two gives a bigger number for MIC: A or B ? Write down the label of the entry you select.
result: B
